# reported IC50; entries follow
- Test system: Candida albicans
- Protocol Summary: Antifungal activity against candida albicans ATCC 10231
- Format: functional, organism-based
Recorded Endpoint: IC50 (µM)

[[record]]
compound = "C=C1CC[C@H]2C(C)(C)CCC[C@]2(C)[C@H]1C[C@@H](OS(=O)(=O)[O-])[C@H](C)CCC/C(C)=C/Cc1cc(O)ccc1O.[Na+]"
observed = 131

[[record]]
compound = "CC1=CC[C@H]2C(C)(C)CCC[C@]2(C)[C@H]1C[C@@H](OS(=O)(=O)O)[C@H](C)CCC/C(C)=C/Cc1cc(O)ccc1O.CN(C)C(=N)N"
observed = 158

[[record]]
compound = "CN(C)C(=N)N.C[C@@H]1CCC2=C(CCCC2(C)C)[C@@]1(C)CC[C@H](CCCc1ccoc1)COS(=O)(=O)O"
observed = 186

[[record]]
compound = "CC1=CCC[C@@H](C)[C@]1(C)CC/C(C)=C/CCC(CCCc1ccoc1)COS(=O)(=O)O.CN(C)C(=N)N (some centres undefined)"
observed = 186

[[record]]
compound = "CC1=CC[C@H]2C(C)(C)CCC[C@]2(C)[C@H]1C/C=C(\\C)CCC/C(C)=C/Cc1cc(O)ccc1O"
observed = 222

[[record]]
compound = "CC1=CC[C@H]2C(C)(C)CCC[C@]2(C)[C@H]1C[C@@H](OS(=O)(=O)[O-])[C@H](C)CCC/C(C)=C/Cc1cc(O)ccc1O.[Na+] [HALISULFATE 1]"
observed = 131

[[record]]
compound = "C=C1CCC[C@@H]2[C@@](C)(CC[C@H](CCCc3ccoc3)COS(=O)(=O)O)[C@H](C)CC[C@]12C.CN(C)C(=N)N"
observed = 186

[[record]]
compound = "O=C(O)CC[N+](=O)[O-]"
observed = 845

[[record]]
compound = "C[C@@H]1[C@H](O)[C@@H](C)/C=C/C=C/C=C/C=C/C=C/C=C/C=C/[C@H](O[C@@H]2O[C@H](C)[C@@H](O)[C@H](N)[C@@H]2O)C[C@@H]2O[C@](O)(C[C@@H](O)C[C@@H](O)[C@H](O)CC[C@@H](O)C[C@@H](O)CC(=O)O[C@H]1C)C[C@H](O)[C@H]2C(=O)O"
observed = 1.7

